Biological target: Sodium-dependent serotonin transporter (Homo sapiens, UniProt P31645)
Sequence (P31645 whole entry): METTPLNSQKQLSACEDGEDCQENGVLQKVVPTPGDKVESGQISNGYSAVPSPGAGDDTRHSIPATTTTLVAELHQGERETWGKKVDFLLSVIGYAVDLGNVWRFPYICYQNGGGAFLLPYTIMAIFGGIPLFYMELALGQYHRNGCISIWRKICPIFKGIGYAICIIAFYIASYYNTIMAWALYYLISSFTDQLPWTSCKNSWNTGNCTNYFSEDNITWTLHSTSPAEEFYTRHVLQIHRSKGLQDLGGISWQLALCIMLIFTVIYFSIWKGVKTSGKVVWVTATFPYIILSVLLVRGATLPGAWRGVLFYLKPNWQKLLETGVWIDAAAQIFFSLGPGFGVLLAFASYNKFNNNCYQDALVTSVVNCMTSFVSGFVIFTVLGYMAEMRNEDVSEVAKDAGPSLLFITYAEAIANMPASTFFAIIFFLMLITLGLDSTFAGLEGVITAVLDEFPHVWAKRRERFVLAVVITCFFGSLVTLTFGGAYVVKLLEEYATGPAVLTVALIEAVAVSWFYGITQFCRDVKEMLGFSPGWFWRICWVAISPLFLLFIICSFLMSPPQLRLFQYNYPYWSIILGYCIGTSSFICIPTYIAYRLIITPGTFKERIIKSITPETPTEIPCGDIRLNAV
Assay: Inhibition of [3H]citalopram binding to the serotonin transporter in cynomolgus (macaca fascicularis) monkey caudate putamen.
Assay type: tissue-based, Cercopithecidae
Conditions: target entry is the homologue from another species; read-out: IC50
pIC50: −log10 of the molar value.
readout-label: pIC50

Request: Name the recorded pIC50 of "COC(=O)c1ccccc1-c1ccccc1" , assay system Sodium-dependent serotonin transporter (Homo sapiens, UniProt P31645).
Response: < 4.15

Request: Name the recorded pIC50 of COC(=O)C1C2CCC(C2)CC1c1ccccc1 (centres undefined) , assay system Sodium-dependent serotonin transporter (Homo sapiens, UniProt P31645).
Response: < 4.70

Request: Name the recorded pIC50 of COC(=O)C1=C(c2ccccc2)CC2CCC1C2 (centres undefined) , assay system Sodium-dependent serotonin transporter (Homo sapiens, UniProt P31645).
Response: < 5.00

Request: Name the recorded pIC50 of COC(=O)c1ccccc1C(=O)OC [DIMETHYL PHTHALATE] , assay system Sodium-dependent serotonin transporter (Homo sapiens, UniProt P31645).
Response: < 4.00

Origin of the recorded values: ChEMBL document CHEMBL1133606
